TARGET: T1, recombinant human CD63 extracellular loop 2 expressed with a C-terminal Myc-Myc-hexahistidine (human)
T1 construct: also called hCD63 EC loop 2-MMH; human CD63 EC loop 2-MMH
T1 sequence (chain, as listed by the source limits assumed): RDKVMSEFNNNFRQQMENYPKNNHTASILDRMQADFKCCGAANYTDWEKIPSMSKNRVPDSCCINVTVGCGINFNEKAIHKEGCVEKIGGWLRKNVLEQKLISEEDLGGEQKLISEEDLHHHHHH
TEST NAME: SPR Biacore, mAb captured, 37C
Description: Equilibrium dissociation constants (KD) for different CD63 (EC2) loop reagents binding to purified anti-CD63 monoclonal antibodies were determined using a real-time surface plasmon resonance based Biacore T200 biosensor or Biacore 2000 biosensor. […] The association rate (Kₐ) and dissociation rate (kd) were determined by fitting the real-time binding sensorgrams to a 1:1 binding model with mass transport limitation using Scrubber 2.0c curve-fitting software. […]
METRIC: pKd
The meaning of pKd here: minus log10 of the concentration in molar units.

H2M12385N (antibody, V domains shown, also called H2bM12385N; H2bM12385) VH: QVQLVESGGGLVKPGGSLRLSCAASGFTFTDYFMNWIRQAPGKGLEWVSYISNSGAIKYQADSVKGRFTISRDNAKNSLYLQMNSLRADDTAVYYCVRDPRSYYGFDYWGQGTLVTVSS VL: DIQMTQSPSSLSASVGDRVTITCRASQSIRNFLNWYQQKPGKAPRLLIYAASSLQSGVPSRFSGGGSGTDFTLTISSLQPEDFATYYCQQSYSNPPITFGQGTRLEIK = 7.40
H1M12386N (antibody, V domains shown) VH: QVQLEESGGGVVKAGGSLRLSCVASGFTFSDYYINWIRQAPGKGLEWVSYINNGGYTIYYADSVKGRFTMSRDNAKNSVYLEMNGLRAEDTAFYYCVRDPRSYYGFDYWGQGTLVTVSS VL: DIQMTQSPSSLSASVGDRVTITCRASQSISSYLNWNQQKPGKAPKLLIYVASSLQSGVPSRFSGSGSGTDFTLTISGLQPEDFAPYYCQQSYITPPITFGQGTRLDIK = 8.44
H1M12451N (antibody, V domains shown) VH: QVQLQESGPGLMKPSETLSLTCTVSGGSFSSYYWNWIRQSPGKGLEWIGYIRYSGDTNYKPSLKSRFTISIDTSKNLFSLRLKSVTAADTAVYYCARMGLGSDAFDIWGQGTMVTVSS VL: EIVLTQSPGTLSLSPGERATLSCRASQSVNNNYLAWYQQKPGQAPRLLIYGVFNRATNIPDRFSGSGSGTDFTLTISRLEPEDFAVYYCQQYGSSPWTFGQGTKVEIK = 7.67

Retrieve pKd measured for H2M12387N (antibody, V domains shown, also called H2aM12387N) VH: QVQLEESGGGVVKAGGSLRLSCAASGFTFSDYYMNWIRQAPGKGLEWVSYINNGGYTIYYADSVKGRFTMSRDNAKNSVYLQMNGLRAEDTAFYYCVRDPRSYYGFDYWGQGTLVIVSS VL: DIQMTQSPSSLSASVGDRVTITCRASQSISRFLHWYQQKPGKAPKLLIYGASSLQSGVPSRFSGSGSGTDFTLTISSLQPEDFATYYCQQSYSTPPITFGQGTRLEIK and print it.
8.28
